Data origin, for the record: ChEMBL document CHEMBL3988442

Tested on: Wolbachia pipientis
Experiment: Anti-Wolbachia Cell-Based Screen
Assay type: functional
Set-up: scale not given: in the data most compounds retested in dose-response had high values
Conditions: 5 µM
About 13,000 (27%) of roughly 48,000 compounds showed an effect of 50% or more. The list shows a part of the results.
Readout: Percent Effect (%)

CCc1n[nH]c(C2CN(C(=O)c3ccc4c(c3)COC4)CCO2)n1 (centres undefined)	136
Cl.Cl.O[C@@H]1C[C@@](CNCC2CCCC2)(COc2cccnc2)C[C@@H]1O	-14.64
Cc1n[nH]c(C2CN(C(=O)c3ccc4c(c3)COC4)CCO2)n1 (centres undefined)	-48.4
CCn1ncnc1C(C)NC(=O)C1CCN(C2CCCCC2)CC1 (centres undefined)	-9.983
CC(NCC1CCS(=O)(=O)CC1)c1cccc(OC(F)F)c1 (centres undefined)	6.07
Cc1cn2c(n1)CCC(NC(=O)CCCn1cncn1)C2 (centres undefined)	102.3
CS(=O)(=O)NCC1CCN(Cc2cc3ccccc3[nH]c2=O)C1 (centres undefined)	5.413
Cc1cn2c(n1)CCC(NC(=O)CCC(F)(F)F)C2 (centres undefined)	10.47
COc1ccc(CN2CC[C@H](c3nc4cccc(C(N)=O)c4[nH]3)C2)cc1	-8.435
CC(=O)c1c(O)ccnc1C(F)(F)F	-30.29
CNC(=O)CCc1cc(C2CCN(c3cnccn3)CC2)nc(C)n1	127.7
O=C(CCc1ccc(O)cc1)N1CCC(Cc2ccc(CO)cc2)C1 (centres undefined)	-11.56
CCc1n[nH]c(C2CN(C(=O)c3ccnc(N(C)C)c3)CCO2)n1 (centres undefined)	149.1
CCOC(=O)c1sc2ccsc2c1CN.Cl	-6.159
CCOC(=O)c1sc2ccsc2c1CNC(=O)C(C)(C)C#N	61.27
CNC(=O)CCc1cc(C)nc(C2CCN(c3ccccc3)CC2)c1	115.5
CC1CCN(C(=O)c2ccnc(-n3cncn3)c2)c2ccccc21 (centres undefined)	8.063
Cc1cn2c(n1)CCC(NC(=O)c1ccc(CS(C)(=O)=O)o1)C2 (centres undefined)	-5.623
CS(=O)(=O)NCCCN1CCCCC1c1cc2ccccc2[nH]1 (centres undefined)	5.136
Cc1nc(C2CCN(CC(=O)NC3CC3)CC2)cc(N2CCOCC2)n1	-4.261
O=C(NCc1nc(C2CC2)no1)N1CCOC(c2ccccc2)C1 (centres undefined)	-16.91
Cc1nnc(NC(=O)N2CCCN(C3CCCC3)CC2)s1	-2.14
Cc1cn2c(n1)CCC(NC(=O)CCn1cncn1)C2 (centres undefined)	-7.204
CCc1n[nH]c(C2CN(C(=O)c3ccc(NC4CC4)nc3)CCO2)n1 (centres undefined)	134.6
